biological target: Coagulation factor X (Homo sapiens, UniProt P00742); test: Inhibition of human factor 10a
Sequence (P00742 41-179 limits assumed): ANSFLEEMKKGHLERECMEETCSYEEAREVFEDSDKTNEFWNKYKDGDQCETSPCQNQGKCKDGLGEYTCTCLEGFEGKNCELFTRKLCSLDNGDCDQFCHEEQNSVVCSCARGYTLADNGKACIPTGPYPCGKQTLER
Sequence (P00742 235-488 limits assumed): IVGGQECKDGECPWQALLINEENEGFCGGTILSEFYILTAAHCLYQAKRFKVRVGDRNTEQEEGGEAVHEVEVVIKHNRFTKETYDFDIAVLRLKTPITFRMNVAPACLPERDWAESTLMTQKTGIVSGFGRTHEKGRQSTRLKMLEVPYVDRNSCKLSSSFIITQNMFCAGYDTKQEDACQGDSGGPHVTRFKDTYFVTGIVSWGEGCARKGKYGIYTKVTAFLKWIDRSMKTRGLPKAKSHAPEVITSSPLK
I'd be grateful if you could share measured pIC50 for these entries.
Numbers only, as −log10 of the molar value.

The examples below pair each entry with its known result.
structure_smiles_string=N=C(N)NCCC[C@H](NC(=O)CNC(=O)[C@@H](Cc1ccccc1)NS(=O)(=O)Cc1ccccc1)C(=O)c1nccs1 assay_target="Coagulation factor X (Homo sapiens, UniProt P00742)" endpoint_result=8.70
structure_smiles_string=N=C(N)NCCC[C@H](NC(=O)CNC(=O)[C@@H](Cc1c[nH]c2ccccc12)NS(=O)(=O)Cc1ccccc1)C(=O)c1nccs1 assay_target="Coagulation factor X (Homo sapiens, UniProt P00742)" endpoint_result=8.70
structure_smiles_string=N=C(N)NCCC[C@H](NC(=O)CN1CCN(S(=O)(=O)Cc2ccccc2)[C@H](Cc2ccccc2)C1=O)C(=O)c1nccs1 assay_target="Coagulation factor X (Homo sapiens, UniProt P00742)" endpoint_result=9.05

List the reported pIC50 of each compound below.
1. NC(N)=NCCC[C@H](NC(=O)CN1CCN(C(=O)Cc2ccccc2)CC1=O)C(=O)c1nccs1
2. N=C(N)NCCC[C@@H](NS(=O)(=O)Cc1ccccc1)C(=O)NCC(=O)N[C@@H](CCCCN)C(=O)c1nccs1
3. N=C(N)NCCC[C@@H](N)C(=O)NCC(=O)N[C@@H](CCCNC(=N)N)C(=O)c1nccs1
4. N=C(N)NCCC[C@H](NC(=O)CNC(=O)[C@@H](CCCNC(=N)N)NS(=O)(=O)CCc1ccccc1)C(=O)c1nccs1
5. N=C(N)NCCC[C@@H](NS(=O)(=O)Cc1ccccc1)C(=O)NCC(=O)N[C@@H](CC1CCNCC1)C(=O)c1nccs1
6. N=C(N)NCCC[C@@H](NS(=O)(=O)Cc1ccccc1)C(=O)NCC(=O)N[C@@H](Cc1c[nH]c2ccccc12)C(=O)c1nccs1

Key:
1: 7.77; 2: 9.00; 3: 8.10; 4: 9.00; 5: 7.55; 6: 7.41

----------
I'd be grateful if you could share measured Ki for these entries.
target: Trypsin (Homo sapiens, UniProt P07477+P07478+P35030); test: Inhibition of human trypsin; assay type: protein assay
Numbers only, in µM.

structure_smiles_string=N[C@H]1CC[C@H]([C@H](NC(=O)[C@@H]2CC[C@H]3CN(S(=O)(=O)Cc4ccccc4)CC(=O)N32)C(=O)c2nc3ccccc3s2)CC1 endpoint_result=1.4
structure_smiles_string=N[C@H]1CC[C@H]([C@H](NC(=O)[C@@H]2CC[C@H]3CN(S(=O)(=O)Cc4ccccc4)CC(=O)N32)C(=O)c2nccs2)CC1 endpoint_result=8
structure_smiles_string=Cn1nnnc1C(=O)[C@@H](NC(=O)[C@@H]1CC[C@H]2CN(S(=O)(=O)Cc3ccccc3)CC(=O)N21)[C@H]1CC[C@H](N)CC1 endpoint_result=35

Exercise: Which value of Ki has been reported for "Cc1nc(C(=O)[C@@H](NC(=O)[C@@H]2CC[C@H]3CN(S(=O)(=O)Cc4ccccc4)CC(=O)N32)[C@H]2CC[C@H](N)CC2)sc1C(=O)O" in the records?
Key: 65

----------
biological target: Trypsin (Homo sapiens, UniProt P07477+P07478+P35030); test: Inhibition of human trypsin; type: protein assay
I'd be grateful if you could share measured log10(IC50) for these entries.
Each number you see is log10 of IC50, and the unit inside the log is µM.

structure_smiles_string=CN[C@H](Cc1ccccc1)C(=O)N1CCC[C@H]1C(=O)N[C@](C)(CCCNC(=N)N)C(=O)c1nc2ccccc2s1.O=C(O)C(F)(F)F assay_target="Trypsin (Homo sapiens, UniProt P07477+P07478+P35030)" endpoint_result=0.78

List the reported log10(IC50) of each compound below.
1. N=C(N)N1CCC[C@@H](C[C@H](NC(=O)CN2C(=O)CN(CCCc3ccccc3)C(=O)[C@H]2Cc2ccccc2)C(=O)c2nccs2)C1
2. C[C@H]1C(=O)N(CCCc2ccccc2)CC(=O)N1CC(=O)N[C@@H](C[C@@H]1CCCN(C(=N)N)C1)C(=O)c1nccs1
3. N=C(N)N1CCC([C@H](NC(=O)[C@@H]2CC[C@H]3CN(C(=O)CCc4ccccc4)CC(=O)N32)C(=O)c2nccs2)CC1
4. C[C@@H]1C(=O)N(CCCc2ccccc2)CC(=O)N1CC(=O)N[C@@H](C[C@@H]1CCCN(C(=N)N)C1)C(=O)c1nccs1
5. N=C(N)N1CCC[C@@H](C[C@H](NC(=O)[C@@H]2CC[C@H]3CN(C(=O)CCc4ccccc4)CC(=O)N32)C(=O)c2nc3ccccc3s2)C1

Key:
0.96
1.38
1.08
-0.47
-0.23

List the reported log10(IC50) of each compound below.
1. CC(C)(C)CC(=O)N[C@H](Cc1ccccc1)C(=O)N1CCC[C@H]1C(=O)N[C@@H](CCCNC(=N)N)C(=O)c1nc2ccccc2o1.O=C(O)C(F)(F)F
2. N=C(N)N1CCC[C@@H](C[C@H](NC(=O)CN2C(=O)CN(CCCc3ccccc3)C(=O)[C@H]2Cc2ccccc2Cl)C(=O)c2nccs2)C1
3. N=C(N)N1CCC[C@@H](C[C@H](NC(=O)CN2CC(=O)N(CCCc3ccccc3)CC2=O)C(=O)c2nccs2)C1

Key:
-2.64
0.99
1.96

Exercise: Which value of log10(IC50) has been reported for "N=C(N)NCCC[C@H](NC(=O)Cn1c(Cc2ccccc2)c(Cl)nc(NCCc2ccccc2)c1=O)C(=O)c1nccs1" in the records?
Key: -0.33

----------
assay: Inhibition of Porphyromonas gingivalis arginine gingipain
Property: Ki (nM)
Numbers only, in nM.

Exercise: Which value of Ki has been reported for NCCCC[C@H](NC(=O)C1CCCN(C(=O)CCc2ccccc2)C1)C(=O)c1nc2ccccc2s1 (stereo partly specified) in the records?
Key: 0.9

----------
Target sequence: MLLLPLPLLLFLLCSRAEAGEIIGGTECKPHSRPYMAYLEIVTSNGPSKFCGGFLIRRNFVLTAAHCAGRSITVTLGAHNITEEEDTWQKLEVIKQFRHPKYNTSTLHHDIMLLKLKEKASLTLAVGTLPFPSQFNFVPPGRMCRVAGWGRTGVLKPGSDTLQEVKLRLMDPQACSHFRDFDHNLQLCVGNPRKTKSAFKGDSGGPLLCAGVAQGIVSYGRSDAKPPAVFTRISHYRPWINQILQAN
Property: Ki (nM)
Give bare numbers, in nM.

Exercise: Which value of Ki has been reported for "COC(=O)c1ccc2oc(C(=O)[C@H](Cc3ccccc3)NC(=O)Cn3c(-c4ccc(F)cc4)ncc(N)c3=O)nc2c1" in the records?
Key: 23

----------
assay: Inhibition of human beta-tryptase
I'd be grateful if you could share measured log10 of Ki for these entries.
Each number you see is log10 of Ki, and the unit inside the log is nM.

compound=CC(=O)N1C[C@H](O)C[C@H]1C(=O)N[C@@H](CCCNC(=N)N)C(=O)c1nccs1 property="log10 of Ki" endpoint_result=2.26
compound=CC(=O)N1CCC[C@H]1C(=O)N[C@@H](CCCN=C(N)N)C(=O)c1nc2ccccc2s1 property="log10 of Ki" endpoint_result=1.28
compound=CCOC(=O)N[C@@H](CCCCN)C(=O)c1noc(Cc2ccc(OCCc3ccccc3)cc2)n1 property="log10 of Ki" endpoint_result=0.70
compound=CCOC(=O)N[C@@H](CCCCN)C(=O)c1noc(Cc2ccc(C(=O)NC3Cc4ccccc4C3)cc2)n1 property="log10 of Ki" endpoint_result=0.48
compound=CC(=O)N1CCC[C@@H]1C(=O)N[C@@H](CCCN=C(N)N)C(=O)c1nc2ccccc2s1 property="log10 of Ki" endpoint_result=4.15
compound=CC(=O)N[C@@H](CC(C)C)C(=O)N[C@@H](CCCN=C(N)N)C(=O)c1nc2ccccc2s1 property="log10 of Ki" endpoint_result=1.61
compound=CC(=O)N1C[C@H](O)C[C@H]1C(=O)N[C@@H](CCCN=C(N)N)C(=O)c1nc2ccccc2s1 property="log10 of Ki" endpoint_result=1.00

Exercise: Which value of log10 of Ki has been reported for NCCCCC(NC(=O)[C@H](Cc1ccccc1)NC(=O)[C@@H](Cc1ccccc1)NS(=O)(=O)Cc1ccccc1)C(=O)c1nc2ccccc2s1 (stereo partly drawn) in the records?
Key: 1.36

----------
target: Proline iminopeptidase (Serratia marcescens)
Sequence (O32449 whole entry): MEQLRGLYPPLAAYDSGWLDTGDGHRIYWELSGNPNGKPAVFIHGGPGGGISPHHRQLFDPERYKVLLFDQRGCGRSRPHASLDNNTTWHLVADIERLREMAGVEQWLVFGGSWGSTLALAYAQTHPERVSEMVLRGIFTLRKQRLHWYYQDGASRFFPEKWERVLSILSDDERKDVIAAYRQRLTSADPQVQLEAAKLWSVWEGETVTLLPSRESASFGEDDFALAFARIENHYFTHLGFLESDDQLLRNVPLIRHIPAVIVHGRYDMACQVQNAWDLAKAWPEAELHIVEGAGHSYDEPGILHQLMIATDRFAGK
Property: pKi
Numbers only, as −log10 of the molar value.

Exercise: Which value of pKi has been reported for "CC(C)(C)c1nnc(C(=O)[C@@H]2CCCN2)o1" in the records?
Key: 6.30

----------
Record: pKi reported on Prothrombin (Homo sapiens, UniProt P00734).
Numbers only, as −log10 of the molar value.

The examples below pair each entry with its known result.
compound=N=C(N)NCCC[C@H](NC(=O)[C@@H]1CCN2CC[C@@](N)(Cc3ccccc3)C(=O)N12)C(=O)c1nc2ccccc2s1 property=pKi endpoint_result=9.19
compound=C[C@]12C[C@@H](Cc3ccc4nc(C(F)(F)F)ccc4c3)CC(=O)N1[C@H](C(=O)N[C@@H](CCCNC(=N)N)C(=O)c1nc3ccccc3s1)CS2 property=pKi endpoint_result=7.74
compound=N=C(N)NCCC[C@H](NC(=O)[C@@H]1CC[C@H]2CN(S(=O)(=O)Cc3ccccc3)CC(=O)N21)C(=O)c1nccs1 property=pKi endpoint_result=9.70
compound="Cc1cccc(C(C)(C)CN(CC(=O)NCC(=O)NC(CCCN=C(N)N)B(O)O)C(=O)CCc2ccccc2)c1 (single isomer, unassigned)" property=pKi endpoint_result=6.40
compound=C[C@]12C[C@@H](Cc3ccccc3)CC(=O)N1[C@H](C(=O)N[C@@H](CCCN=C(N)N)C(=O)c1nc3ccccc3s1)CS2 property=pKi endpoint_result=7.74
compound=Cn1nnnc1C(=O)[C@@H](NC(=O)[C@@H]1CC[C@H]2CN(S(=O)(=O)Cc3ccccc3)CC(=O)N21)[C@H]1CC[C@H](N)CC1 property=pKi endpoint_result=8.30
compound=N[C@H]1CC[C@H]([C@H](NC(=O)[C@@H]2CC[C@H]3CN(S(=O)(=O)Cc4ccccc4)CC(=O)N32)C(=O)c2nc3ccccc3s2)CC1 property=pKi endpoint_result=9.15
compound=N=C(N)NCCC[C@H](NC(=O)[C@@H]1CCCN1C(=O)CC(c1ccccc1)c1ccccc1)C(=O)c1nc2ccccc2s1 property=pKi endpoint_result=8.96

List the reported pKi of each compound below.
1. N=C(N)N1CCC[C@@H](C[C@H](NC(=O)CN2CC(=O)N(CCCc3ccccc3)CC2=O)C(=O)c2nccs2)C1
2. N[C@H]1CC[C@H]([C@H](NC(=O)[C@@H]2CC[C@H]3CN(S(=O)(=O)Cc4ccccc4)CC(=O)N32)C(=O)c2nccs2)CC1
3. Cc1nc(C(=O)[C@@H](NC(=O)[C@@H]2CC[C@H]3CN(S(=O)(=O)Cc4ccccc4)CC(=O)N32)[C@H]2CC[C@H](N)CC2)sc1C(=O)O

Key:
1: 6.30; 2: 8.49; 3: 7.10

List the reported pKi of each compound below.
1. C[C@]12C[C@@H](Cc3ccccc3)CC(=O)N1[C@H](C(=O)N[C@@H](CCCNC(=N)N)C(=O)c1nccs1)CS2
2. NC(N)=NCCC[C@H](NC(=O)[C@@H]1CC[C@H]2CN(C(=O)[C@H](N)Cc3cc4ccccc4[nH]3)CC(=O)N21)C(=O)c1nccs1

Key:
1. 7.80
2. 9.00

All figures here come from ChEMBL document CHEMBL1143211.
